Reference source for all entries: patent US12162884B2

Assay: Solubility studies in water, FaSSIF, FeSSIF and FaSSGF (excess solids in 5 mL medium at 37° C., HPLC; pH, XRPD and NMR of remaining material)
Type: physicochemical
Conditions: pH of solubility sample, FaSSIF, 120 minutes, pH paper
readout_type: pH

CC(C)c1cnn2c(N[C@@H]3CCc4[nH]c5ccccc5c4C3)nc(-c3cncc(F)c3)nc12 [Compound 4 Form A] | 5.5
CC(C)c1cnn2c(N[C@@H]3CCc4[nH]c5ccccc5c4C3)nc(-c3cncc(F)c3)nc12.CS(=O)(=O)O [Compound 3 Form B] | 6
CC(C)c1cnn2c(N[C@@H]3CCc4[nH]c5ccccc5c4C3)nc(-c3cncc(F)c3)nc12 [Compound A Form B] | 6
CC(C)c1cnn2c(N[C@@H]3CCc4[nH]c5ccccc5c4C3)nc(-c3cncc(F)c3)nc12.CCS(=O)(=O)O [Compound 1 Form B] | 6

Next item in the queue.
Name the reported pH value associated with the compound CC(C)c1cnn2c(N[C@@H]3CCc4[nH]c5ccccc5c4C3)nc(-c3cncc(F)c3)nc12 [Compound 2 Form A]
6

* * *

Assay: Stability studies at 40° C./75% RH (HPLC)
Assay type: physicochemical
Settings: Time 0, 1 week, 2 weeks, 4 weeks, HPLC
readout_type: stability / degradation over time

CC(C)c1cnn2c(N[C@@H]3CCc4[nH]c5ccccc5c4C3)nc(-c3cncc(F)c3)nc12 [Compound A Form B] | equally stable
CC(C)c1cnn2c(N[C@@H]3CCc4[nH]c5ccccc5c4C3)nc(-c3cncc(F)c3)nc12.CCS(=O)(=O)O [Compound 1 Form B] | equally stable

* * *

Each entry below carries its reported solubility at 30 min.
Test: Solubility studies in water, FaSSIF, FeSSIF and FaSSGF (excess solids in 5 mL medium at 37° C., HPLC; pH, XRPD and NMR of remaining material)
Type: physicochemical
Conditions: FeSSIF, 37 °C, thermodynamic from solid, 30 minutes
Dear colleague, please return just the value in µg/mL, with no unit written.

CC(C)c1cnn2c(N[C@@H]3CCc4[nH]c5ccccc5c4C3)nc(-c3cncc(F)c3)nc12.CCS(=O)(=O)O [Compound 1 Form B] | 58

Could you now look at the following compound, please?
Which value of solubility at 30 min has been reported for CC(C)c1cnn2c(N[C@@H]3CCc4[nH]c5ccccc5c4C3)nc(-c3cncc(F)c3)nc12.CS(=O)(=O)O [Compound 3 Form B] in the records?
27

* * *

Test: Solubility studies in water, FaSSIF, FeSSIF and FaSSGF (excess solids in 5 mL medium at 37° C., HPLC; pH, XRPD and NMR of remaining material)
Assay type: physicochemical
Details: pH of solubility sample, Water, 120 minutes, pH paper
readout_type: pH
Respond using a number only.

Before answering, review these 4 worked examples.
CC(C)c1cnn2c(N[C@@H]3CCc4[nH]c5ccccc5c4C3)nc(-c3cncc(F)c3)nc12.CCS(=O)(=O)O [Compound 1 Form B] | 4.5
CC(C)c1cnn2c(N[C@@H]3CCc4[nH]c5ccccc5c4C3)nc(-c3cncc(F)c3)nc12.CS(=O)(=O)O [Compound 3 Form B] | 4
CC(C)c1cnn2c(N[C@@H]3CCc4[nH]c5ccccc5c4C3)nc(-c3cncc(F)c3)nc12 [Compound 4 Form A] | 3
CC(C)c1cnn2c(N[C@@H]3CCc4[nH]c5ccccc5c4C3)nc(-c3cncc(F)c3)nc12 [Compound 2 Form A] | 4

# input for lookup
Given CC(C)c1cnn2c(N[C@@H]3CCc4[nH]c5ccccc5c4C3)nc(-c3cncc(F)c3)nc12 [Compound A Form B] , state its recorded pH.
4.5

* * *

Assay: Solubility studies in water, FaSSIF, FeSSIF and FaSSGF (excess solids in 5 mL medium at 37° C., HPLC; pH, XRPD and NMR of remaining material)
Type: physicochemical
Details: FaSSIF, 37 °C, thermodynamic from solid, 120 minutes
readout_type: solubility at 120 min (µg/mL)
Give the quantity in µg/mL, number only.

CC(C)c1cnn2c(N[C@@H]3CCc4[nH]c5ccccc5c4C3)nc(-c3cncc(F)c3)nc12.CCS(=O)(=O)O [Compound 1 Form B] | 34

Let's switch to this compound now.
What does the data say about its solubility at 120 min? Entry: CC(C)c1cnn2c(N[C@@H]3CCc4[nH]c5ccccc5c4C3)nc(-c3cncc(F)c3)nc12.CS(=O)(=O)O [Compound 3 Form B]
34

* * *

Test: Solubility studies in water, FaSSIF, FeSSIF and FaSSGF (excess solids in 5 mL medium at 37° C., HPLC; pH, XRPD and NMR of remaining material)
Type: physicochemical
Settings: pH of solubility sample, FeSSIF, 120 minutes, pH paper
readout_type: pH
Please give the numeric answer without any surrounding text.

CC(C)c1cnn2c(N[C@@H]3CCc4[nH]c5ccccc5c4C3)nc(-c3cncc(F)c3)nc12 [Compound A Form B] | 5

So what's the measured pH for this one? CC(C)c1cnn2c(N[C@@H]3CCc4[nH]c5ccccc5c4C3)nc(-c3cncc(F)c3)nc12 [Compound 4 Form A]
4.5

Would you kindly share the measured pH for CC(C)c1cnn2c(N[C@@H]3CCc4[nH]c5ccccc5c4C3)nc(-c3cncc(F)c3)nc12.CS(=O)(=O)O [Compound 3 Form B] ?
5

Item under review: CC(C)c1cnn2c(N[C@@H]3CCc4[nH]c5ccccc5c4C3)nc(-c3cncc(F)c3)nc12.CCS(=O)(=O)O [Compound 1 Form B] . Reported pH?
5

Suppose we examine the compound CC(C)c1cnn2c(N[C@@H]3CCc4[nH]c5ccccc5c4C3)nc(-c3cncc(F)c3)nc12 [Compound 2 Form A] ; what pH value has been reported?
5
